FYI, the data here is from ChEMBL document CHEMBL3227938.

# Tested on: Streptococcus mutans
# Measurement Protocol: Antimicrobial activity against Streptococcus mutans 6715 after 48 hrs by spectrophotometry
# Type: functional
Property: log(1/MIC)

CCCS(=O)(=O)c1ccc(NC(=N)NC(=N)NCCCCCCNC(=N)NC(=N)Nc2ccc(S(=O)(=O)CCC)cc2)cc1 : 3.7
CCOC(=N)NC(=N)Nc1ccc(Cl)cc1 : 3.7
CCSc1ccc(NC(=N)NC(=N)NCCCCCCNC(=N)NC(=N)Nc2ccc(SCC)cc2)cc1 : 5.7
CCCCCCNC(=N)NC(=N)Nc1cccc(C(F)(F)F)c1 : 4.96
CCCCCCCCOC(=N)NC(=N)Nc1ccc(Cl)cc1 : 5.3
CCCCCCCCCCCCNC(=N)NC(=N)Nc1ccc(Cl)cc1 : 4.7
N=C(NCCCCCCNC(=N)NC(=N)NC1CCCCC1)NC(=N)NC1CCCCC1 : 5.4
CCCCCCS(=O)(=O)c1ccc(NC(=N)NC(=N)NCCCCCCNC(=N)NC(=N)Nc2ccc(S(=O)(=O)CCCCCC)cc2)cc1 : 5.4
CCCCC(CC)CNC(=N)NC(=N)NCCCCCCNC(=N)NC(=N)NCC(CC)CCCC (centres undefined) [ALEXIDINE] : 5.1
N=C(NCCCCCCNC(=N)NC(=N)Nc1cccc(C(F)(F)F)c1)NC(=N)Nc1cccc(C(F)(F)F)c1 : 5.22
CCCCCCCCNC(=N)NC(=N)Nc1cccc(C(F)(F)F)c1 : 5.3
CCCCCCCCNC(=N)NC(=N)Nc1ccccc1 : 5.04
CCCCOC(=N)NC(=N)Nc1ccc(Cl)cc1 : 4
CSc1ccc(NC(=N)NC(=N)NCCCCCCNC(=N)NC(=N)Nc2ccc(SC)cc2)cc1 : 5.4
N=C(NCCCCCCNC(=N)NC(=N)Nc1ccc(Cl)cc1)NC(=N)Nc1ccc(Cl)cc1 [CHLORHEXIDINE] : 5.22
CCCCC(CC)CNC(=N)NC(=N)Nc1ccc(Cl)cc1 (centres undefined) : 5.4
CCCCCCCCNC(=N)NC(=N)Nc1ccc(C)cc1 : 5.3
CCCCCCCCCCOC(=N)NC(=N)Nc1ccc(Cl)cc1 : 5.05
CCCCNC(=N)NC(=N)Nc1ccc(Cl)cc1 : 4
